# Tested on: Staph. hyicus
# assay-name: MIC by serial dilution on iso-sensitest agar, Staph. hyicus
# Type: cell-based
# run-parameters: Staphylococcus hyicus, 20 h, strain 9637, actual clinical isolate; 37° C., about 20 hours
Reported MIC is given for each of the following compounds.
The figure you give is taken to be in µg/mL; do not add the unit.

Please review the following examples before continuing.
compound	MIC [µg/mL]
CC(C)CC(=O)C(=O)NCCc1cn(C)c2ccccc12 [Compound 2]	0.03
CCC(C)C(=O)C(=O)NCCc1cn(Cc2ccccc2)c2ccccc12 (stereo not drawn) [Compound 6]	0.125

Then this compound:
Exercise: Give the reported MIC for this compound. CCC(C)C(=O)C(=O)NCCc1cn(C)c2ccccc12 (stereo not drawn) [Compound 1]
Solution: 0.015
